Measured values drawn from patent US20260132132A1 for this set.

STUDY SYSTEM: FXa (Homo sapiens, UniProt P00742)
Sequence (P00742 235-488 limits assumed): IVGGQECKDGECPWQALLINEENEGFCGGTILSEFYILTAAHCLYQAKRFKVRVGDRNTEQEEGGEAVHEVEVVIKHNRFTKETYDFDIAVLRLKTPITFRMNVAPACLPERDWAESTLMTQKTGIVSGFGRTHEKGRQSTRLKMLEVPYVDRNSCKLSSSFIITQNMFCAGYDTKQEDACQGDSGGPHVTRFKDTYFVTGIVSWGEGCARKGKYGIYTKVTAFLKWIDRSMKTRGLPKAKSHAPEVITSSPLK
Sequence (P00742 41-179 partner limits assumed): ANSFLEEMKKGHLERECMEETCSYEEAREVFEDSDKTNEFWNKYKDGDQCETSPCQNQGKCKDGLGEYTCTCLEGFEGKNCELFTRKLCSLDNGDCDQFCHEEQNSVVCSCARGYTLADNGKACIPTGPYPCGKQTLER
MEASUREMENT DESCRIPTION: Related protease inhibition: FXa, fluorogenic substrate
Type: biochemical
DETAILS: fluorogenic substrate at Km, 25° C.; H1-H3 = % activity at 40 μM; read-out: IC50 (human FXa) nM
QUANTITY MEASURED: activity at 40 µM

SMILES DATA	VALUE
CCNC(=O)c1nn(-c2cccc(OC)n2)c2c1CCN(c1ccc3c(c1)C(=O)N(C)CC3)C2=O	> 80%
COCc1nn(-c2cc(Cl)cc(CN)c2)c2c1CCN(c1ccc3c(c1)C(=O)N(C)CC3)C2=O	20 to 80%
CCNC(=O)c1nn(-c2cccc(Cl)c2)c2c1CCN(c1ccc3c(c1)NCCO3)C2=O	20 to 80%

----------
STUDY SYSTEM: Human Factor XIIa (hFXIIa) (Homo sapiens, UniProt P00748)
Sequence (P00748 373-615 limits assumed): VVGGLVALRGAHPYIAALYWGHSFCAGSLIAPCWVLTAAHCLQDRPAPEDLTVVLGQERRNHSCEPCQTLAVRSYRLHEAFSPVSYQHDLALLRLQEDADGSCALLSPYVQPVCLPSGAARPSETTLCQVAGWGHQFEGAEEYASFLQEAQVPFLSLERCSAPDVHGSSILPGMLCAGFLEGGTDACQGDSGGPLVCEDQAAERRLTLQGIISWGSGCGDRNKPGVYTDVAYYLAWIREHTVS
Sequence (P00748 20-372 partner limits assumed): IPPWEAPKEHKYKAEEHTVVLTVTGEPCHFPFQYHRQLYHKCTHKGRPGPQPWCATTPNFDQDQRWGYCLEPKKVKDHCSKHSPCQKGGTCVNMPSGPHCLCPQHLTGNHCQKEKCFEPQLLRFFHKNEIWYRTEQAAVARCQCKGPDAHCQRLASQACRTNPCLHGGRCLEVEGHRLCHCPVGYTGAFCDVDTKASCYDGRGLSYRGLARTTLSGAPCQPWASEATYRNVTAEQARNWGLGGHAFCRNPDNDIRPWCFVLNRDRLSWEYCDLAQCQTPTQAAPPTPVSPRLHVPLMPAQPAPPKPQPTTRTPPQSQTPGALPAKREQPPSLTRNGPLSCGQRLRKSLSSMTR
# IC50 per entry
QUANTITY MEASURED: IC50

COMPOUND	VALUE
CCOC(=O)c1nn(-c2cccc(Cl)c2)c2c(=O)n(-c3ccc4c(c3)C(=O)N(CCO)CC4)c(C)nc12	100 to 300 nM
CN1CCc2ccc(N3CCc4c(C(=O)NCC5CC5)nn(-c5cc(Cl)cc(C#N)c5)c4C3=O)cc2C1=O	3000 to 10000 nM
CCNC(=O)c1nn(-c2cccc(Cl)c2)c2c1CCN(c1cccc(N3CCCC3=O)c1)C2=O	1000 to 3000 nM
COC1CN(CCO)Cc2cc(N3CCc4c(C(=O)NCC5CC5)nn(-c5cccc(Cl)c5)c4C3=O)ccc21 (centres unmarked)	300 to 1000 nM
CC1CCCN1Cc1cccc(N2CCc3c(C(=O)NCc4ccccc4)nn(-c4cccc(Cl)c4)c3C2=O)c1 (centres unmarked)	300 to 1000 nM
CN1CCc2ccc(N3CCc4c(C#N)nn(-c5cccc(Cl)c5)c4C3=O)cc2C1=O	300 to 1000 nM
CCNC(=O)c1nn(-c2cccc(Cl)c2)c2c1CCN(c1cc3c(cn1)OCCN(C)C3=O)C2=O	300 to 1000 nM
O=C(NCC1CC1)c1nn(-c2cccc(Cl)c2)c2c1CCN(c1ccc3c(c1)CN(CCCF)CC3)C2=O	100 to 300 nM
COc1ccc(-n2nc(C(=O)NCc3cnccc3C)c3c2C(=O)N(c2ccc4c(c2)CN(CCO)CC4)CC3)cc1	300 to 1000 nM
Cc1cc(C)c(CNC(=O)c2nn(-c3cccc(Cl)c3)c3c2CCN(c2ccc4c(c2)C(=O)N(CCO)CC4)C3=O)cn1	10 to 100 nM
C[C@@H](NC(=O)c1nn(-c2cccc(Cl)c2)c2c1CCN(c1ccc3c(c1)C(=O)N(C)CC3)C2=O)C(=O)O	1000 to 3000 nM
Cc1ccncc1CNC(=O)c1nn(-c2cccc(Cl)c2)c2c1CCN(c1ccc3c(c1)CN(CCO)C[C@@H]3C)C2=O	100 to 300 nM
CN1CCc2ccc(N3CCc4c(C(=O)N[C@@H]5COC[C@@H]5O)nn(-c5cccc(Cl)c5)c4C3=O)cc2C1=O	300 to 1000 nM
CCNC(=O)c1nn(-c2cccc(Cl)c2)c2c1CCN(c1cccc(N3C4CCC3CN(C)C4)c1)C2=O	3000 to 10000 nM
CCNC(=O)c1nn(-c2cc(Cl)ccc2C)c2c1CCN(c1ccc3c(c1)C(=O)N(C)CC3)C2=O	10000 to 40000 nM
COCc1nn(-c2cccc(Cl)c2)c2c1CCN(c1ccc3c(c1)CN(CCO)CC3)C2=O	300 to 1000 nM
CCNC(=O)c1nn(-c2ccc(Cl)c(C)c2)c2c1CCN(c1ccc3c(c1)C(=O)N(C)CC3)C2=O	1000 to 3000 nM
CCNC(=O)c1nn(-c2cnc(N)c(Cl)c2)c2c1CCN(c1ccc3c(c1)C(=O)N(C)CC3)C2=O	> 4000 nM
Cc1ccncc1COCc1nn(-c2cccc(Cl)c2)c2c1CCN(c1ccc3c(c1)C(=O)N(C)CC3)C2=O	1000 to 3000 nM
CN1CCc2ccc(N3CCc4c(C(=O)NCC5CC5)nn(-c5csc(Cl)c5)c4C3=O)cc2C1=O	1000 to 3000 nM

----------
Entries annotated with measured IC50
STUDY SYSTEM: Human Factor XIIa (hFXIIa) (Homo sapiens, UniProt P00748)
Sequence (P00748 373-615 limits assumed): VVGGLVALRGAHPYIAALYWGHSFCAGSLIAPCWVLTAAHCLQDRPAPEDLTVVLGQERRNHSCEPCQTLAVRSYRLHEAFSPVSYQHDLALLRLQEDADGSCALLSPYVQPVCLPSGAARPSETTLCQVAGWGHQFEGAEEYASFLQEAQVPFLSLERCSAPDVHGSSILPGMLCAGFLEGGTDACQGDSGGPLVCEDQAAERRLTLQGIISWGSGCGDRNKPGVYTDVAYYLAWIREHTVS
Sequence (P00748 20-372 partner limits assumed): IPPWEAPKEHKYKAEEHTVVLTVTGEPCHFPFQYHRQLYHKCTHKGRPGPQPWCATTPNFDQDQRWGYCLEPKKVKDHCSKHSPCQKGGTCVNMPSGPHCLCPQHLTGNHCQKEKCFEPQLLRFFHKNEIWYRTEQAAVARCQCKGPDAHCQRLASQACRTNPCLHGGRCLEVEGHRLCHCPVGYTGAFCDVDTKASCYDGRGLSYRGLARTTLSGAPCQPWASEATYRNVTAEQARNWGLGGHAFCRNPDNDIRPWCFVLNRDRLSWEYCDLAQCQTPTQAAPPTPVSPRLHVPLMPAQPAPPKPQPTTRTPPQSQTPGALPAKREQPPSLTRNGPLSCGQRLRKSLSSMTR

SMILES DATA	IC50
CN1C(=O)CCc2ccc(N3CCc4c(C(=O)NCC5CC5)nn(-c5cccc(Cl)c5)c4C3=O)cc21	3000 to 10000 nM
Cc1c[nH]nc1CNC(=O)c1nn(-c2cccc(Cl)c2)c2c1CCN(c1ccc3c(c1)C(=O)N(C)CC3)C2=O	100 to 300 nM
O=C(Cn1nc(-c2cccc(Cl)c2)c2c1CCN(c1ccc3c(c1)CN(CCO)CC3)C2=O)NC1CC1	1000 to 3000 nM
CCOC(=O)c1nn(-c2cc(C)cc(CN)c2)c2c1CCN(c1ccc3c(c1)C(=O)N(C)CC3)C2=O	10 to 100 nM
Cc1nc2c(CNS(=O)(=O)C3CC3)nn(-c3cccc(Cl)c3)c2c(=O)n1-c1ccc2c(c1)CN(CCO)CC2	300 to 1000 nM
Cc1ccncc1CNC(=O)c1nn(-c2cccc(Cl)c2)c2c1CCN(c1ccc3c(c1)C(=O)N(C)[C@@H](CO)CO3)C2=O	300 to 1000 nM
O=C(NCc1ccccc1)c1nn(-c2cccc(Cl)c2)c2c1CCN(c1cccc(CN3CCOCC3)c1)C2=O	1000 to 3000 nM
